Assay: Drug concentration in bile/gall bladder of C57BL/6 mouse at 30 mg/kg, po measured after 8 hrs by HPLC and mass spectrometry
Type: ADME, organism-based
Conditions: read-out: Drug uptake
experimental.endpoint: concentration at 8 h (µM)
Just the number in µM, nothing appended.

Query: Look at this compound and give its reported concentration at 8 h. CN(C[C@H](O)[C@@H](O)[C@H](O)[C@H](O)CO)C(=O)CCCCc1cc(Cl)c(CN2CSC[C@H]2C(=O)N2CCN(C3CC3)c3ccccc32)cc1Cl
Result: 1.3

Query: Returns the measured concentration at 8 h for the input compound. Input: O=C(NCCCCCc1cc(Cl)c(CN2CSC[C@H]2C(=O)N2CCN(C3CC3)c3ccccc32)cc1Cl)NC(CO)(CO)CO
Result: 6

Query: Please report the recorded concentration at 8 h for O=C(NCCCCCc1cc(Cl)c(CN2CSC[C@H]2C(=O)N2CCN(C3CC3)c3ccccc32)cc1Cl)NCP(=O)(O)O .
Result: 3.1

Query: Item O=C(O)CN(C[C@H](O)[C@@H](O)[C@H](O)[C@H](O)CO)C(=O)CCCCc1cc(Cl)c(CN2CSC[C@H]2C(=O)N2CCN(C3CC3)c3ccccc32)cc1Cl has what recorded concentration at 8 h?
Result: 3.7

Query: // lookup concentration at 8 h for O=C(CCCCc1cc(Cl)c(CN2CSC[C@H]2C(=O)N2CCN(C3CC3)c3ccccc32)cc1Cl)N[C@@H](C(=O)O)[C@@H](O)[C@H](O)[C@H](O)CO
Result: 3.9

Query: Record request: concentration at 8 h value, item O=C(O)CN(CCCCCc1cc(Cl)c(CN2CSC[C@H]2C(=O)N2CCN(C3CC3)c3ccccc32)cc1Cl)CC(=O)O
Result: 4.7

---

Assay: Apparent permeability from basolateral to apical side in MDCK cells at 10 uM by HPLC-MS/MS method
Assay type: ADME, cell-based, Canis lupus familiaris
Settings: dog
experimental.endpoint: Papp B→A at 10 µM (×10⁻⁶ cm/s)
Write it as a number; the unit ×10⁻⁶ cm/s goes unstated.

Query: Look up Papp B→A at 10 µM for this compound: O=C(NC[C@H](O)[C@@H](O)[C@H](O)[C@H](O)CO)c1ccc(COc2cc(Cl)c(CN3CSC[C@H]3C(=O)N3CCN(C4CC4)c4ccccc43)cc2Cl)cc1
Result: 0.07

---

Exercise: state measured concentration at 8 h for each of the molecules provided.
Assay: Drug concentration in bile/gall bladder of C57BL/6 mouse at 30 mg/kg, po measured after 8 hrs by HPLC and mass spectrometry
Format: ADME, organism-based
Conditions: read-out: Drug uptake
Don't forget the unit after the number, please.

Query: Need concentration at 8 h of C[C@@H](NC(=O)[C@@H](C)NC(=O)[C@@H](C)NC(=O)CCCCc1cc(Cl)c(CN2CSC[C@H]2C(=O)N2CCN(C3CC3)c3ccccc32)cc1Cl)C(=O)O , thanks.
Result: 1700 nM

Query: Field request: concentration at 8 h | item: O=C(O)CNC(=O)CNC(=O)CNC(=O)CCCCc1cc(Cl)c(CN2CSC[C@H]2C(=O)N2CCN(C3CC3)c3ccccc32)cc1Cl
Result: 600 nM

Query: For the molecule O=C(NC[C@H](O)[C@@H](O)[C@H](O)[C@H](O)CO)c1ccc(COc2cc(Cl)c(CN3CSC[C@H]3C(=O)N3CCN(C4CC4)c4ccccc43)cc2Cl)cc1 , what concentration at 8 h is on record?
Result: 90 nM

Query: What does the record list as concentration at 8 h for O=C(NCCCN(CCCNC(=O)[C@H](O)[C@@H](O)[C@H](O)[C@H](O)CO)C(=O)NCCCCOc1cc(Cl)c(CN2CSC[C@H]2C(=O)N2CCN(C3CC3)c3ccccc32)cc1Cl)[C@H](O)[C@@H](O)[C@H](O)[C@H](O)CO ?
Result: 300 nM

Query: Please give the measured concentration at 8 h for this molecule: CN(C[C@H](O)[C@@H](O)[C@H](O)[C@H](O)CO)C(=O)CC[C@H](NC(=O)CCCCc1cc(Cl)c(CN2CSC[C@H]2C(=O)N2CCN(C3CC3)c3ccccc32)cc1Cl)C(=O)O
Result: 1900 nM

Query: Form field: reported concentration at 8 h of O=C(NCCCCCc1cc(Cl)c(CN2CSC[C@H]2C(=O)N2CCN(C3CC3)c3ccccc32)cc1Cl)N1CCN(CP(=O)(O)O)CC1
Result: 80 nM
